Test system: A498
Assay: NCI tumour cell line growth inhibition, 48 h
Active and inactive are the calls of the source. Cut-off read from the data, not from the text of the source: active = GI50 up to about 1.1 µM and inactive = higher.
Outcome codes: active, inactive

> print(dat)
                                    molecule  assigned.class
 1                     CC(C)c1ccc(O)c(=O)cc1        inactive
 2                          C=CCNc1ccc(C)cc1        inactive
 3  Cc1ccc(-c2cc(-c3c(C)nn(C)c(=O)c3N)n[nH]2)cc1        inactive
 4            O=C1Cc2cc3ccccc3nc2-c2ccccc2N1        inactive
 5  COc1cc(O)c(C(=O)C2Cc3ccccc32)c(OC)c1 (configuration not stated)        inactive
 6  CC1=C(c2cc(C(=O)Nc3ccc(Cl)c(Cl)c3)nc(N)n2)Sc2ccccc2N1        inactive
 7        O=C1c2cc(I)ccc2N2CCN=C2N1Cc1ccccc1          active
 8  CN(C)CCNC(=O)c1cc([N+](=O)[O-])cc2c1Oc1ccccc1O2        inactive
 9  COC(=O)C1=C(O)C(C(=O)OC)[C@]2(O)[C@H](C(=O)OC)[C@H]1C[C@@H](c1ccc(Cl)cc1Cl)[C@H]2C(=O)OC (some centres not stated)        inactive
10                        Nc1ccccc1CCCC(=O)O        inactive
11  O=[N+]([O-])C(Cl)=C/C(=C(\Cl)SCc1ccccc1)[N+](=O)[O-]        inactive
12  O=C1NC2c3c(I)sc(I)c3/C(=N\O)C2O1 (configuration not stated)        inactive
13  COC(=O)C1=C(C)N(NC(=O)OC(C)(C)C)C(=O)C1=P(c1ccccc1)(c1ccccc1)c1ccccc1        inactive
14    O=C(CCc1cc(O)cc(O)c1)NCCc1cc(O)cc(O)c1        inactive
15           N=C(N)N/N=C(\c1ccc(Cl)cc1)C1CC1        inactive
16  N#CC1=C(N)N(/N=C/c2ccccc2)C(c2ccccc2)C1(C#N)C#N (configuration not stated)        inactive
17  COc1c(C)c(C/C=C(\C)CCCCO[Si](c2ccccc2)(c2ccccc2)C(C)(C)C)c(OC)c(OC)c1OC        inactive
18  O=P1(Oc2ccc(Cl)cc2Cl)Oc2ccc3ccccc3c2-c2c(ccc3ccccc23)O1        inactive
19                  O=C1CSSCC(=O)Nc2ccccc2N1        inactive
20  CCN(CC)C1CC(O[C@H]2C[C@](O)(C(=O)CO)Cc3c(O)c4c(c(O)c32)C(=O)c2c(OC)cccc2C4=O)OC(C)C1O (some centres not stated)          active
21            Oc1c(Br)c(-c2ccccc2)nc2ccccc12        inactive
22    CCOC(=O)Cn1c2ccc(Br)cc2c2nc3ccccc3nc21        inactive
